- Test system: Escherichia coli TOP10
- Experimental protocol: shrunken log2 fold change of peptide-encoding DNA abundance (4.5 h post-induction vs induction); higher = less antimicrobial activity (less host growth inhibition)
- Test context: time post-induction: 4.5 h; library: site-saturation at positions 5, 18, 19, 20
Quantity measured: shrunken log2 fold change
Reply with the value as a number alone.

Prompt: Using the record for RRIRLRPPRLPRPRPRPAQEPRP , report its shrunken log2 fold change.
Response: -0.023

Prompt: Consider the sequence RRIRCRPPRLPRPRPRPPIEPRP and give its measured shrunken log2 fold change.
Response: -0.0198

Prompt: Item under review: RRIRTRPPRLPRPRPRPYIPPRP . Reported shrunken log2 fold change?
Response: -0.462

Prompt: Can you share its shrunken log2 fold change? I mean this sequence: RRIRYRPPRLPRPRPRPVHKPRP
Response: -0.564

* * *

- System: Escherichia coli TOP10
- Experimental protocol: shrunken log2 fold change of peptide-encoding DNA abundance (4.5 h post-induction vs induction); higher = less antimicrobial activity (less host growth inhibition)
- Test context: time post-induction: 4.5 h; library: site-saturation at positions 5, 18, 19, 20
Quantity measured: shrunken log2 fold change
Lab note: record the figure alone, no unit after it.

Prompt: Tell me the measured shrunken log2 fold change of RRIRARPPRLPRPRPRPPWRPRP , please.
Response: 0.816

Prompt: Give the measured shrunken log2 fold change of RRIRLRPPRLPRPRPRPEYAPRP .
Response: -0.000852

Prompt: Look at this sequence and give its reported shrunken log2 fold change. RRIRIRPPRLPRPRPRPEHMPRP
Response: -0.0778

Prompt: Any idea what its shrunken log2 fold change is? The sequence is RRIRNRPPRLPRPRPRPQKYPRP
Response: 0.125

Prompt: Which measured shrunken log2 fold change value corresponds to RRIRHRPPRLPRPRPRPPTNPRP ?
Response: 0.101

Prompt: Consider the sequence RRIRERPPRLPRPRPRPTDYPRP and give its measured shrunken log2 fold change.
Response: -0.349

Prompt: Please give the measured shrunken log2 fold change for this sequence: RRIRGRPPRLPRPRPRPDNVPRP
Response: -0.011

Prompt: Entry RRIRKRPPRLPRPRPRPDLRPRP : reported shrunken log2 fold change = ?
Response: 0.103

* * *

- Test system: Escherichia coli TOP10;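 also: peptides expressed intracellularly from a pBAD plasmid library in pooled LB shake-flask culture, induced with 0.3% L-arabinose, DNA abundance read by NGS, three biological replicates, DESeq2 with apeglm shrinkage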
- Experimental protocol: shrunken log2 fold change of peptide-encoding DNA abundance (4.5 h post-induction vs induction); higher = less antimicrobial activity (less host growth inhibition)
- Test context: time post-induction: 4.5 h; library: site-saturation at positions 5, 18, 19, 20
Entries are grouped by shrunken log2 fold change into these classes: group 1 = under -0.2, group 2 = from -0.2 up to 0.006, group 3 = 0.006 and over

Prompt: Hi, small favor: classify RRIRGRPPRLPRPRPRPYMVPRP by its shrunken log2 fold change when you get a moment.
Response: group 1

Prompt: Please let me know in which category the item RRIRVRPPRLPRPRPRPFEFPRP belongs.
Response: group 1

Prompt: Tag the class for RRIRHRPPRLPRPRPRPLWWPRP
Response: group 3

Prompt: For RRIRARPPRLPRPRPRPVNRPRP , which shrunken log2 fold change bin applies?
Response: group 3

Prompt: Band of RRIRWRPPRLPRPRPRPNNVPRP ?
Response: group 1

Prompt: Tag the class for RRIRWRPPRLPRPRPRPSEMPRP
Response: group 2

Prompt: For RRIRYRPPRLPRPRPRPGAWPRP , which shrunken log2 fold change bin applies?
Response: group 3

Prompt: Returns: class label. Input: RRIRDRPPRLPRPRPRPHWGPRP
Response: group 2

Prompt: Band for the recorded shrunken log2 fold change of RRIRMRPPRLPRPRPRPSSMPRP ?
Response: group 2

Prompt: Dear colleague, I would appreciate it if you could identify the bin for RRIRKRPPRLPRPRPRPAVEPRP and reply at your convenience.
Response: group 3

Prompt: # classify by shrunken log2 fold change band: RRIRDRPPRLPRPRPRPAMPPRP
Response: group 2

Prompt: Class label required: RRIRNRPPRLPRPRPRPYEHPRP
Response: group 2

Prompt: Consider RRIRARPPRLPRPRPRPICEPRP . To which shrunken log2 fold change class does it belong?
Response: group 3

Prompt: Which band does RRIRVRPPRLPRPRPRPFGSPRP fall in?
Response: group 2

Prompt: State the band of RRIRERPPRLPRPRPRPNKCPRP
Response: group 1

Prompt: Determine which band this sequence sits in: RRIRFRPPRLPRPRPRPEQRPRP
Response: group 2

Prompt: Which class does RRIRIRPPRLPRPRPRPHKFPRP fall in?
Response: group 1

Prompt: Into which bin does this sequence go? RRIRWRPPRLPRPRPRPIVSPRP
Response: group 2

Prompt: Sort into band: RRIRCRPPRLPRPRPRPRDYPRP
Response: group 2

Prompt: Place this sequence in its band: RRIRIRPPRLPRPRPRPYNLPRP
Response: group 1

Prompt: Any idea which band RRIRCRPPRLPRPRPRPGMEPRP is in?
Response: group 3

Prompt: Which band does RRIRERPPRLPRPRPRPKWDPRP fall in?
Response: group 3

Prompt: Band assignment needed for RRIRTRPPRLPRPRPRPTVFPRP please.
Response: group 2

Prompt: Note: place this sequence into its band. Item: RRIRRRPPRLPRPRPRPMVIPRP
Response: group 2

Prompt: For this sequence, which bin applies? RRIRGRPPRLPRPRPRPFCTPRP
Response: group 3

Prompt: Which class does RRIRHRPPRLPRPRPRPVILPRP fall in?
Response: group 1

Prompt: // bin(item) where item = RRIRVRPPRLPRPRPRPAGRPRP
Response: group 3

Prompt: Band of RRIRHRPPRLPRPRPRPKIPPRP ?
Response: group 1

Prompt: Hi there! Could you help me figure out the category for RRIRWRPPRLPRPRPRPLIHPRP please?
Response: group 2
